- System: 966289-007-R4-J1-PDC complex spheroid viability;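 further: spheroids exposed to agents for one week before readout; percent viability relative to DMSO vehicle control wells as 100%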
- Test Summary: Anticancer human tumor 966289-007-R4-J1-PDC patient-derived pancreatic adenocarcinoma cell line growth inhibition [RAS]
- Condition Description: second compound 0.03 µM; first compound 0.1 µM; stronger effect = lower value
Can you tell me viability, T/C for the items I'm about to list?
Give bare numbers, in %.

Examples from the recorded data:
# Compound, Measurement Kind, Experimental Result
rows = [
    ("CCC(CC)c1cc(NC2CCC(N)C2)n2nccc2n1 (centres undefined) + CCn1c(-c2cc(N3CCN(C)CC3)cnc2C(C)OC)c2c3cc(ccc31)-c1csc(n1)CC(NC(=O)C1CC1C)C(=O)N1CCCC(N1)C(=O)OCC(C)(C)C2", "viability, T/C", 86.8),
    ("CC(C)NCC(C(=O)N1CCN(c2ncnc3c2C(C)CC3O)CC1)c1ccc(Cl)cc1 (centres undefined) + CCn1c(-c2cc(N3CCN(C)CC3)cnc2C(C)OC)c2c3cc(ccc31)-c1csc(n1)CC(NC(=O)C1CC1C)C(=O)N1CCCC(N1)C(=O)OCC(C)(C)C2", "viability, T/C", 97.4),
    ("O=C(c1ccc(F)c(F)c1Nc1ccc(I)cc1F)N1CC(O)([C@@H]2CCCCN2)C1 + CCn1c(-c2cc(N3CCN(C)CC3)cnc2C(C)OC)c2c3cc(ccc31)-c1csc(n1)CC(NC(=O)C1CC1C)C(=O)N1CCCC(N1)C(=O)OCC(C)(C)C2", "viability, T/C", 54.2),
]

Here is another compound to look at.
[in] Looking for the measured viability, T/C of CC(C)NCC(C(=O)N1CCN(c2ncnc3c2C(C)CC3O)CC1)c1ccc(Cl)cc1 (centres undefined) + CCn1c(-c2cccnc2C(C)OC)c2c3cc(ccc31)N1CCOC(CC(NC(=O)C(C(C)C)N(C)C(=O)C3(F)CCN(C(=O)C#CC(C)(C)N(C)C)CC3)C(=O)N3CCCC(N3)C(=O)OCC(C)(C)C2)C1 , can you help?
[out] 72.6

Provenance of the data: PubChem BioAssay AID2060897
